Let's look at some sequences and their measured Kd.
Measurement target: HLA-A*01:01
Assay explanation: IEDB peptide-MHC binding, purified MHC/direct/fluorescence; filed as Kd, often an IC50 or EC50 that approximates it; bounds were set here for any values at or beyond the usual limits of such assays
Condition context: source organism: West Nile virus

- Chain sequence: "GRGPIRFVL"
  Kd: "≥ 20 µM"
- Chain sequence: "GMSWITQGL"
  Kd: "≥ 20 µM"

* * *

Measurement target: HLA-B*15:02
Assay explanation: IEDB peptide-MHC binding, purified MHC/direct/fluorescence; filed as Kd, often an IC50 or EC50 that approximates it; bounds were set here for any values at or beyond the usual limits of such assays
Condition context: source organism: Escherichia coli O157:H7 str. EC869

- Chain sequence: "NIAAPYLPF"
  Unit: "nM"
  Kd: 13

* * *

Measurement target: HLA-B*15:01
Assay explanation: IEDB peptide-MHC binding, purified MHC/direct/fluorescence; filed as Kd, often an IC50 or EC50 that approximates it; bounds were set here for any values at or beyond the usual limits of such assays
Condition context: source organism: Salmonella enterica
pKd: −log10 of the molar value.
Observed property: pKd

- Chain sequence: "ALMRWRHPR"
  Measurement target: "HLA-B*15:01"
  Result: "≤ 4.70"

* * *

Measurement target: HLA-A*30:02
Assay explanation: IEDB peptide-MHC binding, purified MHC/competitive/radioactivity; filed as Kd, often an IC50 or EC50 that approximates it; bounds were set here for any values at or beyond the usual limits of such assays
Condition context: source organism: Variola virus

- Chain sequence: "QSDTVFDHY"
  Kd [µM]: 11.9

* * *

Measurement target: HLA-B*15:01
Assay explanation: IEDB peptide-MHC binding, purified MHC/direct/fluorescence; filed as Kd, often an IC50 or EC50 that approximates it; bounds were set here for any values at or beyond the usual limits of such assays
Condition context: source organism: Marburg virus - Musoke, Kenya, 1980
Observed property: Kd

- Chain sequence: "QVGIFLICK"
  Result: "≥ 20 µM"

* * *

Measurement target: HLA-B*39:01
Assay explanation: IEDB peptide-MHC binding, purified MHC/direct/fluorescence; filed as Kd, often an IC50 or EC50 that approximates it; bounds were set here for any values at or beyond the usual limits of such assays
Condition context: source organism: Influenza A virus (A/Belfast/53582/2004(H3N?))
pKd: −log10 of the molar value.
Observed property: pKd

- Chain sequence: "YRKEQQNAV"
  Measurement target: "HLA-B*39:01"
  Measured number: 6.21

* * *

Measurement target: HLA-A*23:01
Assay explanation: IEDB peptide-MHC binding, purified MHC/competitive/fluorescence; filed as Kd, often an IC50 or EC50 that approximates it; bounds were set here for any values at or beyond the usual limits of such assays
Condition context: source organism: Entamoeba dispar SAW760
Observed property: Kd

- Chain sequence: "KGFFRVFKK"
  Measurement target: "HLA-A*23:01"
  Result: "≥ 20 µM"

* * *

Measurement target: HLA-A*30:02
Assay explanation: IEDB peptide-MHC binding, purified MHC/competitive/radioactivity; filed as Kd, often an IC50 or EC50 that approximates it; bounds were set here for any values at or beyond the usual limits of such assays
Condition context: source organism: Dengue virus 4 Thailand/0348/1991
Observed property: Kd (nM)

- Chain sequence: "RGWGNGCGLF"
  Measured number: 15.4
